// Urine Na % of control lookup, one value per entry
# Test system: absorption of sodium from the intestinal lumen
# TEST_DESCRIPTION: Inhibition of intestinal sodium absorption: urinary sodium (uNa) 16 h after single oral dose in rats
# Assay type: in vivo, rat
# MEASUREMENT_CONDITIONS: oral gavage, dose 10 mg/kg, 16 h post-dose

{"COMPOUND": "CN1Cc2c(Cl)cc(Cl)cc2C(c2cccc(S(N)(=O)=O)c2)C1 (stereo not drawn) [compound 1]", "Urine Na % of control": "87%"}
{"COMPOUND": "CN1Cc2c(Cl)cc(Cl)cc2[C@H](c2cccc(S(=O)(=O)NCCOCCOCCOCCNCc3ccc(-c4ccc(Cl)cc4)cc3)c2)C1 [compound 112]", "Urine Na % of control": "73%"}
{"COMPOUND": "CN(C)[C@H]1Cc2c(Cl)cc(Cl)cc2[C@@H]1Oc1ccc(S(=O)(=O)NCCOCCOCCNC(=O)Nc2ccc(NC(=O)NCCOCCOCCNS(=O)(=O)c3ccc(O[C@H]4c5cc(Cl)cc(Cl)c5C[C@@H]4N(C)C)cc3)cc2)cc1 [compound 152]", "Urine Na % of control": "26%"}

---

# SYSTEM_UNDER_TEST: Rat NHE3 (Rattus norvegicus)
# Construct: expressed in transfected cells; host or cells: Opossum kidney (OK) cells (ATCC), electroporation
# Sequence (P26433 29-831): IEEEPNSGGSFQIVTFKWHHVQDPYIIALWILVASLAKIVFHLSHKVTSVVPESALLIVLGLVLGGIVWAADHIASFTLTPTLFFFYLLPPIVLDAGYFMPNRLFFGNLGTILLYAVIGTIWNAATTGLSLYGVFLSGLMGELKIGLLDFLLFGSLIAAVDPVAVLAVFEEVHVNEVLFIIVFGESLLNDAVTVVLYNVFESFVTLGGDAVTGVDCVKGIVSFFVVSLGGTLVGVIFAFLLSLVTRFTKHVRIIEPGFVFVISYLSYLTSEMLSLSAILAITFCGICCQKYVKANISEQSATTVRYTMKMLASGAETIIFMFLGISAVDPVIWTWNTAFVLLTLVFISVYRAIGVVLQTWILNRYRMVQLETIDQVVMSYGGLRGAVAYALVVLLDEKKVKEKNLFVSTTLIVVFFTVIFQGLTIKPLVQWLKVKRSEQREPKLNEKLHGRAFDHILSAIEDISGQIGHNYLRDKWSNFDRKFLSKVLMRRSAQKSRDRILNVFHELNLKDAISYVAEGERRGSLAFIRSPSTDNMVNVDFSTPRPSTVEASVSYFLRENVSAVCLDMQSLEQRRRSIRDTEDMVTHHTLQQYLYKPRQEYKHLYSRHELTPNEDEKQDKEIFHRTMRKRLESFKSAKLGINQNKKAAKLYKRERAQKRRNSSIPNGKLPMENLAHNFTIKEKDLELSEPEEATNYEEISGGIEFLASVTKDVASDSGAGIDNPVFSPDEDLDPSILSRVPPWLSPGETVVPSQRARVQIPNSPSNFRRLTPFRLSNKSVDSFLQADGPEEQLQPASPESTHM
# TEST_DESCRIPTION: Cell-based NHE3 activity under prompt conditions (OK cells, BCECF pH recovery), rat NHE3
# MEASUREMENT_CONDITIONS: prompt conditions
READOUT_NAME: Prompt Rat NHE3 pIC50

{"CHEMICAL_STRING": "CN1Cc2c(Cl)cc(Cl)cc2[C@H](c2cccc(S(=O)(=O)NCCOCCOCCNC(=O)CN(CCN(CC(=O)O)CC(=O)NCCOCCOCCNS(=O)(=O)c3cccc([C@@H]4CN(C)Cc5c(Cl)cc(Cl)cc54)c3)CC(=O)O)c2)C1", "LIMIT_SIGN": "=", "ASSAY_RESULT": 7.90}
{"CHEMICAL_STRING": "O=C(NCCCCNC(=O)NCCOCCOCCNS(=O)(=O)c1ccc(O[C@H]2c3cc(Cl)cc(Cl)c3C[C@@H]2N2CC[C@@H](O)C2)cc1)NCCOCCOCCNS(=O)(=O)c1ccc(O[C@H]2c3cc(Cl)cc(Cl)c3C[C@@H]2N2CC[C@@H](O)C2)cc1", "LIMIT_SIGN": "<", "ASSAY_RESULT": 5.00}

---

// Urine Na % of control lookup, one value per entry
# Test system: absorption of sodium from the intestinal lumen
# TEST_DESCRIPTION: Inhibition of intestinal sodium absorption: urinary sodium (uNa) 16 h after single oral dose in rats
# Assay type: in vivo, rat
# MEASUREMENT_CONDITIONS: oral gavage, dose 10 mg/kg, 16 h post-dose
READOUT_NAME: Urine Na % of control (%)

{"COMPOUND": "C/C(=C\\c1cc(F)c(Oc2ccc(S(=O)(=O)NCCOCCOCCOCCNCc3ccc(CNCCOCCOCCOCCNS(=O)(=O)c4ccc(Oc5c(F)cc(/C=C(\\C)C(=O)N=C(N)N)cc5F)cc4)cc3)cc2)c(F)c1)C(=O)N=C(N)N", "UNIT_ANNOTATION": "%", "ASSAY_RESULT": 74}
{"COMPOUND": "CN1Cc2c(Cl)cc(Cl)cc2[C@H](c2cccc(S(=O)(=O)NCCOCCOCCOCCNC(=O)CCC(N)(CCC(=O)NCCOCCOCCOCCNS(=O)(=O)c3cccc([C@@H]4CN(C)Cc5c(Cl)cc(Cl)cc54)c3)CCC(=O)NCCOCCOCCOCCNS(=O)(=O)c3cccc([C@@H]4CN(C)Cc5c(Cl)cc(Cl)cc54)c3)c2)C1", "UNIT_ANNOTATION": "%", "ASSAY_RESULT": 38}
{"COMPOUND": "CN1Cc2c(Cl)cc(Cl)cc2C(c2cccc(S(=O)(=O)NCCOCCOCCOCCNC(=O)NCCN(CCNC(=O)NCCOCCOCCOCCNS(=O)(=O)c3cccc([C@@H]4CN(C)Cc5c(Cl)cc(Cl)cc54)c3)CCNC(=O)NCCOCCOCCOCCNS(=O)(=O)c3cccc([C@@H]4CN(C)Cc5c(Cl)cc(Cl)cc54)c3)c2)C1 (stereo in doubt)", "UNIT_ANNOTATION": "%", "ASSAY_RESULT": 18}
